Molecular target: T1, TNFR1 (Homo sapiens, UniProt P19438)
T1 chain: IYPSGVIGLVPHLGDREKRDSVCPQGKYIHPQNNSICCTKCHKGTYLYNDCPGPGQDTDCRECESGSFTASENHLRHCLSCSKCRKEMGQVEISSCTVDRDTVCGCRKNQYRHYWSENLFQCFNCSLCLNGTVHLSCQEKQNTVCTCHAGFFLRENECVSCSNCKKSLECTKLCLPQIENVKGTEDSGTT
Test: yeast display SC50
measurement_name: apparent Kd (screen) (nM)
Provide the reading as a plain figure in nM.

Ask | Given the entry I45F (designed binder) MTLQELLREEALRRAEAEAFRYALELLAEKFPEQKEYLLDLAEEFESQIRSLSGVDVEDVRKFLDKEWAWVKELLAEHPAELAEVEAARAARLAELRAEVEAKVAA , report its measured apparent Kd (screen).
Reply | 3.63

Ask | Could you share which apparent Kd (screen) value was measured for E9M (designed binder) MTLQELLRMEALRRAEAEAFRYALELLAEKFPEQKEYLLDLAEEIESQIRSLSGVDVEDVRKFLDKEWAWVKELLAEHPAELAEVEAARAARLAELRAEVEAKVAA ?
Reply | 0.653

Ask | Name the recorded apparent Kd (screen) for A42P (designed binder) MTLQELLREEALRRAEAEAFRYALELLAEKFPEQKEYLLDLPEEIESQIRSLSGVDVEDVRKFLDKEWAWVKELLAEHPAELAEVEAARAARLAELRAEVEAKVAA .
Reply | 0.49

Ask | Entry E36I (designed binder) MTLQELLREEALRRAEAEAFRYALELLAEKFPEQKIYLLDLAEEIESQIRSLSGVDVEDVRKFLDKEWAWVKELLAEHPAELAEVEAARAARLAELRAEVEAKVAA has what apparent Kd (screen)?
Reply | 2.48

Ask | Tell me the measured apparent Kd (screen) of L41P (designed binder) MTLQELLREEALRRAEAEAFRYALELLAEKFPEQKEYLLDPAEEIESQIRSLSGVDVEDVRKFLDKEWAWVKELLAEHPAELAEVEAARAARLAELRAEVEAKVAA , please.
Reply | 1.27

Ask | Return reported apparent Kd (screen); argument: A80H (designed binder) MTLQELLREEALRRAEAEAFRYALELLAEKFPEQKEYLLDLAEEIESQIRSLSGVDVEDVRKFLDKEWAWVKELLAEHPHELAEVEAARAARLAELRAEVEAKVAA
Reply | 0.869

Ask | I would be grateful if you could share the reported apparent Kd (screen) for L39Q (designed binder) MTLQELLREEALRRAEAEAFRYALELLAEKFPEQKEYLQDLAEEIESQIRSLSGVDVEDVRKFLDKEWAWVKELLAEHPAELAEVEAARAARLAELRAEVEAKVAA .
Reply | 1.27

Ask | Data request, read-out apparent Kd (screen), for A80L (designed binder) MTLQELLREEALRRAEAEAFRYALELLAEKFPEQKEYLLDLAEEIESQIRSLSGVDVEDVRKFLDKEWAWVKELLAEHPLELAEVEAARAARLAELRAEVEAKVAA
Reply | 0.446

Recorded values, source paper PMC12416549.
